Hey, just so you know, these numbers are from ChEMBL document CHEMBL1201862.

The reader will find reported AC50 values listed item by item below.
# System Under Test: UniProtKB P08684
# Sequence (P08684 whole entry): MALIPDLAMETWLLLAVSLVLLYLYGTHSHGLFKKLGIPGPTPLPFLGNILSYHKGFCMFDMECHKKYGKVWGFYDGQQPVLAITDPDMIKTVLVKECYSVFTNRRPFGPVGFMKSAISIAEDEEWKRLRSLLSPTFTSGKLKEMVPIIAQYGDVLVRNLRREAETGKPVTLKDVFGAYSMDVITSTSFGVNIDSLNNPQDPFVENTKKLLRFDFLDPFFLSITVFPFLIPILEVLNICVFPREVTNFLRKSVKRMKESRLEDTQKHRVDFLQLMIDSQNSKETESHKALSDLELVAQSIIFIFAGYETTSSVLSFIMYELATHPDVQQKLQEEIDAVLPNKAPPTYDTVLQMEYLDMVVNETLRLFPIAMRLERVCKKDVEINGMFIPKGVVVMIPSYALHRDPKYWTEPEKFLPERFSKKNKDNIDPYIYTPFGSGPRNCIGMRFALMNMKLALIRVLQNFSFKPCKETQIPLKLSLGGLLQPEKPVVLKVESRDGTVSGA
# Condition Context: Potency;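 also: confirmatory qHTS run detecting inhibitors and substrates of CYP3A4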

Worked set:
| Molecule | AC50 |
| --- | --- |
| CC1CC(O)[C@]2(O)[C@]13CC(=O)OC[C@@]2(C)[C@@](C)(O)C(=O)C3 (stereo partly specified) | 31.6 µM (inconclusive) |
| Nc1nc(/C(=C/CC(=O)O)C(=O)NC2C(=O)N3C(C(=O)O)=CCSC23)cs1 (stereo unspecified) | 31.6 µM (inconclusive) |
| COC(C1CCCCC1)C(C)C(OCc1cccc(Br)c1)C(C)CO (stereo unspecified) | 3.16 µM (inconclusive) |
| CC[C@]1(O)CC(O[C@@H]2CC(N(C)C)C(O)C(C)O2)c2c(cc3c(c2O)C(=O)c2c(O)cccc2C3=O)C1C(=O)OC (stereo partly specified) | 39.8 µM (inconclusive) |
| COC(=O)CC1C(C)(C)C(OC(C)=O)C2CC3=C4CC(=O)OC(c5ccoc5)[C@]4(C)CCC3[C@@]1(C)C2=O (stereo partly specified) | 1.58 µM (inconclusive) |

As a next step, examine the molecule that follows.
q: Identify the reported AC50 for the following entry. CC(=O)C1CCC2C3CC(C)C4=CC(=O)CC[C@@]4(C)C3C(O)C[C@@]12C (stereo partly specified)
a: 31.6 µM (inconclusive)
